B1: H2-Kb / Ed23 (parent complex)
chain 1: QQKVQQSPESLTVSEGAMASLNCTFSDRSSDNFRWYRQHSGKGLEVLVSIFSDGEKEEGSFTAHLNRASLHVFLHIREPQPSDSALYLCAVRGFWTNKVVFGTGTRLQVLP
chain 2: AQTIHQWPVAEIKAVGSPLSLGCTIKGKSSPNLYWYWQATGGTLQQLFYSITVGQVESVVQLNLSASRPKDDQFILSTEKLLLSHSGFYLCAWSPRQSSYEQYFGPGTRLTVL
chain 3: not shown
chain 4: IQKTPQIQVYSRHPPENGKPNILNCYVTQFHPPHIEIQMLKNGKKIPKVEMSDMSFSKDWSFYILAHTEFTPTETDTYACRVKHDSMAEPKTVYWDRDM
chain 5: SIINFEKL

Variants of: B1
Test: % of reporter cells activated (NFAT-GFP), raw; also: test concentration or dose not given here
reported.metric: ratio to parent
The reply should be a number, written without any unit.

# mutation.code, ratio to parent
measured = [
    ("chain 5 L8T", 1.02),
    ("chain 5 N4P", 0.71),
]

For this variant ( chain 5 I3W ), measured ratio to parent is 0.975

variant chain 5 L8A , ratio to parent observed: 0.692

// provenance: paper PMC11480844
